Target: human B1R receptor (hB1R) (Homo sapiens, UniProt P46663)
Construct: expressed in transfected cells; host or cells: CHO K1 cells
Sequence (P46663 whole entry): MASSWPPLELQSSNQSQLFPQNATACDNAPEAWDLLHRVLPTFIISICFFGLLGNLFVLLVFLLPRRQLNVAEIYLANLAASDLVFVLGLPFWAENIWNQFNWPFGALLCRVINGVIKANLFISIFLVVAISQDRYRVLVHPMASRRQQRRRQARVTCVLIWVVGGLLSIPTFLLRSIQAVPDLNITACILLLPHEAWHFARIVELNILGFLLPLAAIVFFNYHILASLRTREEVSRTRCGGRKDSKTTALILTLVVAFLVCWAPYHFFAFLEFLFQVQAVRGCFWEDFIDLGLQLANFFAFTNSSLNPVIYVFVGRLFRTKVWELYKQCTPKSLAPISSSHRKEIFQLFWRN
Experiment: Functional investigation on the bradykinin 1 receptor (B1R), FLIPR Ca2+ assay, hB1R cells
Type: cell-based
Details: test substance 10 μM; CHO K1 cells transfected with human B1R gene; Fluo-4 Ca2+ signal; agonist Lys-Des-Arg9-bradykinin at EC80; % of maximum achievable inhibition; read-out: B1R antagonism, human [10 μM] % inhibition
Structures can show the parent of a compound that is named as a salt.
Here, each record is paired with measured inhibition at 10 µM data.

Molecule	Measurement target	inhibition at 10 µM
COc1cc(C)c(S(=O)(=O)N2CCC[C@@H]2CCCS(=O)(=O)N2CCN(C3CCN(C)CC3)CC2)c(C)c1 [Example 34]	human B1R receptor (hB1R) (Homo sapiens, UniProt P46663)	99%
COc1cc(C)c(S(=O)(=O)N2CCC(CCS(=O)(=O)N3CCN(c4ccncc4)CC3)C2)c(C)c1C (stereo not shown) [Example 22]	human B1R receptor (hB1R) (Homo sapiens, UniProt P46663)	103%
O=S(=O)(CCC[C@@H]1CCCN1S(=O)(=O)c1ccc2ccccc2c1)N1[C@@H]2CC[C@H]1C[C@H](Oc1ccncc1)C2 [Example 57]	human B1R receptor (hB1R) (Homo sapiens, UniProt P46663)	25%
Cc1ccc(S(=O)(=O)N2CCC[C@H]2CCCS(=O)(=O)N2CCC3(CCN(c4ccncc4)CC3)CC2)c2ccccc12 [Example 75]	human B1R receptor (hB1R) (Homo sapiens, UniProt P46663)	96%
COc1cc(C)c(S(=O)(=O)N2CCC[C@H]2CCCS(=O)(=O)N2CCC3(CCC(N4CC(F)(F)C4)CC3)CC2)c(C)c1 [Example 63]	human B1R receptor (hB1R) (Homo sapiens, UniProt P46663)	99%
O=S(=O)(CCC[C@@H]1CCCN1S(=O)(=O)c1ccc(Cl)cc1Cl)N1[C@@H]2CC[C@H]1C[C@H](Oc1ccncc1)C2 [Example 59]	human B1R receptor (hB1R) (Homo sapiens, UniProt P46663)	94%
COc1ccc(S(=O)(=O)N2CCC[C@H]2CCCS(=O)(=O)N2CCC3(CCN(c4ccncc4)CC3)CC2)c2ccccc12 [Example 77]	human B1R receptor (hB1R) (Homo sapiens, UniProt P46663)	81%
COc1cc(C)c(S(=O)(=O)N2CCC[C@H]2CCCS(=O)(=O)N2CCN(c3nccs3)CC2)c(C)c1C [Example 40]	human B1R receptor (hB1R) (Homo sapiens, UniProt P46663)	50%
COc1cc(C)c(S(=O)(=O)N2c3ccccc3CC2CCCS(=O)(=O)N2CCC3(CCN(c4ccncc4)CC3)CC2)c(C)c1 (stereo not shown) [Example 45]	human B1R receptor (hB1R) (Homo sapiens, UniProt P46663)	98%
Cc1cc(C)c(S(=O)(=O)N2CC[C@@H]2CCCS(=O)(=O)N2CCC(CCN3CCCC3)CC2)c(C)c1 [Example 4, hydrochloride]	human B1R receptor (hB1R) (Homo sapiens, UniProt P46663)	76%
O=S(=O)(CCC[C@@H]1CCCN1S(=O)(=O)c1ccc2ccccc2c1)N1CCC(Oc2ccncc2)CC1 [Example 49]	human B1R receptor (hB1R) (Homo sapiens, UniProt P46663)	30%
O=S(=O)(CCC[C@@H]1CCCN1S(=O)(=O)Cc1cccc(Cl)c1)N1CCC(Oc2ccncc2)CC1 [Example 70]	human B1R receptor (hB1R) (Homo sapiens, UniProt P46663)	26%
O=S(=O)(CCC[C@H]1CCCN1S(=O)(=O)c1ccc2ccccc2c1)N1CCN(c2ccncc2)CC1 [Example 2, hydrochloride]	human B1R receptor (hB1R) (Homo sapiens, UniProt P46663)	102%
Cc1cccc(Cl)c1S(=O)(=O)N1CCC[C@H]1CCCS(=O)(=O)N1[C@@H]2CC[C@H]1C[C@H](Oc1ccncc1)C2 [Example 55]	human B1R receptor (hB1R) (Homo sapiens, UniProt P46663)	98%
Cc1cc(S(=O)(=O)N2CCCCC2CCS(=O)(=O)N2CCN(C3CCN(C)CC3)CC2)c(C)cc1Cl (stereo not shown) [Example 38, dihydrochloride]	human B1R receptor (hB1R) (Homo sapiens, UniProt P46663)	101%
O=S(=O)(CCC[C@@H]1CCCN1S(=O)(=O)c1cccc2ccccc12)N1CCC(Oc2ccncc2)CC1 [Example 50]	human B1R receptor (hB1R) (Homo sapiens, UniProt P46663)	58%
CN1CCC(N2CCN(S(=O)(=O)CCC[C@@H]3CCCN3S(=O)(=O)c3cccc4ccccc34)CC2)CC1 [Example 30]	human B1R receptor (hB1R) (Homo sapiens, UniProt P46663)	56%
Cc1cc(C)c(S(=O)(=O)N2CCC(CCCS(=O)(=O)N3CCN(C4CCN(C)CC4)CC3)CC2)c(C)c1 [Example 13]	human B1R receptor (hB1R) (Homo sapiens, UniProt P46663)	53%
Cc1cccc(Cl)c1S(=O)(=O)N1CCC[C@H]1CCCS(=O)(=O)N1CCC(Oc2ccncc2)CC1 [Example 46]	human B1R receptor (hB1R) (Homo sapiens, UniProt P46663)	80%
O=S(=O)(CCC[C@@H]1CCCN1S(=O)(=O)c1cccc(Cl)c1Cl)N1[C@@H]2CC[C@H]1C[C@H](Oc1ccncc1)C2 [Example 60]	human B1R receptor (hB1R) (Homo sapiens, UniProt P46663)	89%
COc1cc(C)c(S(=O)(=O)N2CCC[C@H]2CCCS(=O)(=O)N2CCC3(CCN(c4ccncc4)CC3)C2)c(C)c1 [Example 85]	human B1R receptor (hB1R) (Homo sapiens, UniProt P46663)	99%
COc1cc(C)c(S(=O)(=O)N2CCCC(CCCS(=O)(=O)N3CCC(CCN4CCCC4)CC3)C2)c(C)c1C (stereo not shown) [Example 10, hydrochloride]	human B1R receptor (hB1R) (Homo sapiens, UniProt P46663)	63%

Attribution: patent US8119805B2
